- Tested on: Acinetobacter baumannii
- Procedure text: Antibacterial activity against wild type Acinetobacter baumannii ATCC 17978 by checkerboard assay
- Assay type: functional

Compound	Target or test system	MIC, µg/mL
CO[C@H]1/C=C/O[C@@]2(C)Oc3c(C)c(O)c4c(O)c(c(/C=N/N5CCN(C)CC5)c(O)c4c3C2=O)NC(=O)/C(C)=C\C=C\[C@H](C)[C@H](O)[C@@H](C)[C@@H](O)[C@@H](C)[C@H](OC(C)=O)[C@@H]1C [RIFAMPIN]	Acinetobacter baumannii	2
O=C(N[C@H](CO)[C@H](O)c1ccc([N+](=O)[O-])cc1)C(Cl)Cl [CHLORAMPHENICOL]	Acinetobacter baumannii	64
NC[C@H]1O[C@H](O[C@H]2[C@H](O)[C@@H](O[C@H]3O[C@H](CO)[C@@H](O)[C@H](N)[C@H]3O)[C@H](N)C[C@@H]2N)[C@H](N)C[C@@H]1O [TOBRAMYCIN]	Acinetobacter baumannii	1
CO[C@@H]1[C@@H](OC(N)=O)[C@@H](O)[C@H](Oc2ccc3c(O)c(NC(=O)c4ccc(O)c(CC=C(C)C)c4)c(=O)oc3c2C)OC1(C)C [NOVOBIOCIN]	Acinetobacter baumannii	16
O=C(O)c1cn(C2CC2)c2cc(N3CCNCC3)c(F)cc2c1=O [CIPROFLOXACIN]	Acinetobacter baumannii	1
CC(C)(O/N=C(\C(=O)N[C@@H]1C(=O)N2C(C(=O)[O-])=C(C[n+]3ccccc3)CS[C@H]12)c1csc(N)n1)C(=O)O [CEFTAZIDIME]	Acinetobacter baumannii	16
CN(C)c1ccc(O)c2c1C[C@H]1C[C@H]3[C@H](N(C)C)C(O)=C(C(N)=O)C(=O)[C@@]3(O)C(O)=C1C2=O [MINOCYCLINE]	Acinetobacter baumannii	0.125
